Taken from patent US9649313B2.

Protein target, amino acids: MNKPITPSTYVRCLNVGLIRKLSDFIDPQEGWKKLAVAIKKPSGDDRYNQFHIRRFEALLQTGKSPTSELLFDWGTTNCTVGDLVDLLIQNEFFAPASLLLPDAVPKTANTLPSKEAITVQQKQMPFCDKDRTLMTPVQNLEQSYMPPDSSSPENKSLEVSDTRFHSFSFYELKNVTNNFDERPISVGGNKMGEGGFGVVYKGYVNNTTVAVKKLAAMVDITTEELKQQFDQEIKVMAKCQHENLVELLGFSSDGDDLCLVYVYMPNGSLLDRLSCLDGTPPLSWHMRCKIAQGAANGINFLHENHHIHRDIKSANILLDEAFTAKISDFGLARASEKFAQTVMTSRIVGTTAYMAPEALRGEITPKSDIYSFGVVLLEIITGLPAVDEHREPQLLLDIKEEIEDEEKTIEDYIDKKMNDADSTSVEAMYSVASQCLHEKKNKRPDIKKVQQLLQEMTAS
pIC50: −log10 of the molar value.
Measured metric: pIC50

molecule="CC(C)C(C)CNCc1ccc2c(c1)[nH]/c(=N\\C(=O)c1ccc(C3=CN=NC3)s1)n2CC(C)(C)O (stereo not shown) [BI 10N]" measured_metric=pIC50 reading=8.50
